Cited source for all entries: paper PMC10650850

Target: AF9-DOT1L interaction (Homo sapiens, UniProt P42568)
Construct: human AF9 AHD domain (475–568); made in house; host or cells: E. coli BL21(DE3)
Sequence (P42568 475-568): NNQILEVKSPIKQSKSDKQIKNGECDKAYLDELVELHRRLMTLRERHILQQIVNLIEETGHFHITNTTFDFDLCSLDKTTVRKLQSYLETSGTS
Assay: AlphaLisa assay, AF9-DOT1L interaction
Type: binding
Conditions: MBP-protein 5 nM, biotinylated peptide 40 nM, 3 independent experiments with standard deviation, read-out: IC50 (μM) against the AF9-DOT1L interaction
Below, each of the compounds is paired with its reported IC50 value.
EXPERIMENTAL_READOUT: IC50 (µM)

line_notation=O=C(NCC1CCNCC1)c1cc2ccc(Nc3ccc(N4CCCCC4)cc3)cc2s1 experimental_readout=IC50 measured_number=2.3
line_notation=N#Cc1cccc(-c2ccc3cc(C(=O)NCC4CCNCC4)[nH]c3c2)c1 experimental_readout=IC50 measured_number=2.1
line_notation=Cl.O=C(NCC1CCNCC1)c1coc2cc(-c3ccc(N4CCCCC4)cc3)ccc12 experimental_readout=IC50 measured_number=7.2
line_notation=Cl.O=C(NCC1CCNCC1)c1cc2ccc(-c3ccc(N4CCCCC4)cc3)cc2s1 experimental_readout=IC50 measured_number=1.6
